pIC50: −log10 of the molar value.
Endpoint summary: pIC50, system: Epidermal growth factor receptor (Homo sapiens), multiple sources combined.
Metric Name: pIC50

Illustrative cases are given below, each with its answer.
[
  {
    "Molecule": "COC(C)(C)c1ccc2c(c1)O[C@@H]1CCN(CCOc3c(cnn3C)-c3ccc4[nH]nc(c4c3)/C=C/2)C1=O",
    "pIC50": 6.83
  },
  {
    "Molecule": "CNC(=O)N1CCc2cccc(Nc3nc(Nc4ccc(N5CCC(N6CCN(C)CC6)CC5)cc4OC)ncc3Cl)c21",
    "pIC50": 6.54
  },
  {
    "Molecule": "CC(C)Cn1/c(=N/C(=O)c2ccnc(Oc3cccc(O)c3C=O)c2)[nH]c2ccc(CN3CCN(C)CC3)cc21",
    "pIC50": 8.00
  }
]

P = CCN1CC2(C1)CN(c1cc3c(Nc4cccc(Cl)c4F)ncnc3cc1OC)C(=O)O2
Q = COc1cc(N(C)CCN(C)C)c(NC(C)=O)cc1Nc1nccc(-c2cn(Cc3ccc(O)c(C=O)c3)c3ccccc23)n1
R = C=CC(=O)N1CCC(C2CCNn3c2nc(-c2ccc(Oc4ccccc4)cc2)c3C(N)=O)CC1 (stereo not drawn)
Rank ascending by pIC50. Lab note: final answer is the ordered label list. Q, R, P

----------
Values of IC50 for Epidermal growth factor receptor (Homo sapiens), collected from a number of published sources:

Value sought: IC50, system Epidermal growth factor receptor (Homo sapiens), item Cc1ccc(Oc2ccc(Nc3ncnc4sc5c(c34)C[C@@H](C)N(C(=O)/C=C/CN(C)C)[C@@H]5C)cc2C)cn1 (racemic) . Result: > 10000 nM

Entry `Oc1ccc(/C=C/c2cc(-c3ccc(F)cc3)[nH]n2)cc1` under Epidermal growth factor receptor (Homo sapiens) had IC50 of > 5000 nM

So the reported IC50 for `C=CC(=O)Nc1cc(-c2c(-c3ccc(N4CCN(C)CC4)cc3)[nH]c3ncc(C(=O)OC(C)C)cc23)c(C)cc1C` , on Epidermal growth factor receptor (Homo sapiens), turned out to be ≤ 100 nM

So the reported IC50 for `CC#CC(=O)N1CCC[C@H]1Cn1nc(-c2ccc(Oc3ccccc3)cc2)c2c(N)ncnc21` , on Epidermal growth factor receptor (Homo sapiens), turned out to be 2810 nM

----------
Study the reported IC50 values for Epidermal growth factor receptor (Homo sapiens, UniProt P00533) given below; they originate from different publications.

For this compound ( `CCN(CC)CCN1CCc2[nH]c(/C=C3\C(=O)Nc4ncnc(Nc5ccc(F)c(Cl)c5)c43)c(C)c2C1=O` ), measured IC50 is 0.06 µM

get_value(item= `C#Cc1cccc(Nc2ncnc3cc(OC)c4c(c23)OCCO4)c1` , readout=IC50) returns < 0.05 µM

Looking up `C=CC(=O)Nc1cc(-c2c(-c3cccc(OCCN4CCCC4)c3)[nH]c3nccc(Cl)c23)ccc1C` , I found its IC50 recorded as ≤ 0.1 µM

----------
Listing of IC50 toward Epidermal growth factor receptor (Homo sapiens, UniProt P00533), each taken from a published source.

[
  {
    "Smiles Input": "CC(C)c1nc(-c2cccc(NS(=O)(=O)c3cn(C)nc3C(F)(F)F)c2)c(-c2ccnc(Nc3ccc(N4CCOCC4)nc3)n2)s1",
    "Study System": "Epidermal growth factor receptor (Homo sapiens, UniProt P00533)",
    "Observed Value": "> 1000 nM"
  },
  {
    "Smiles Input": "Cc1ccc(Oc2ccc(Nc3ncnc4sc5c(c34)CCN(C(=O)/C=C/CNCCS(C)(=O)=O)C5)cc2C)cn1",
    "Study System": "Epidermal growth factor receptor (Homo sapiens, UniProt P00533)",
    "Observed Value": "> 10000 nM"
  }
]

Attention now turns to another entry.
The compound `CCc1cc(Nc2ncc(Cl)c(Nc3ccc(-c4ncc(F)cn4)cc3P(C)(C)=O)n2)c(OC)cc1N1CCC(N2CCN(C)CC2)CC1` on Epidermal growth factor receptor (Homo sapiens, UniProt P00533): IC50 was 20.3 nM
